The values you see were collected from PubChem BioAssay AID1963985.

# Tested on: 252836-082-R-J2-PDC tumor spheroids, viability;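 further: spheroids exposed to agents for seven days before readout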
# PROTOCOL_NOTES: Anticancer human tumor 252836-082-R-J2-PDC patient-derived head and neck squamous cell carcinoma cell line growth inhibition [PI3K]
# ASSAY_CONTEXT: curve of first compound; second compound 0.1 µM; spheroids with HUVEC and MSC
pIC50: −log10 of the molar value.
As shown below, each of these molecules has a reported pIC50 value.

Worked cases, answers included:
| MOLECULE | OBSERVED_VALUE |
| --- | --- |
| Cn1ncc(Cl)c1-c1cc(C(=O)NC(CN)Cc2cccc(F)c2)sc1Cl (stereo unspecified) + COc1c(OCCCN2CCOCC2)ccc2c3n(c(=NC(=O)c4cnc(N)nc4)nc12)CCN3 | > 7.50 |
| C[C@@H](NC(=O)c1ncnc(N)c1Cl)c1ncc(C(=O)Nc2cc(C(F)(F)F)c(Cl)cn2)s1 + CC(Nc1ccc2c(c1)OCCn1cc(N3C(=O)OCC3C(F)F)nc1-2)C(N)=O | < 5.00 |
| CC(C)NCC(C(=O)N1CCN(c2ncnc3c2C(C)CC3O)CC1)c1ccc(Cl)cc1 (stereo unspecified) + CC(Nc1ncnc2nc[nH]c12)c1cc2cccc(Cl)c2c(=O)n1-c1ccccc1 | 5.96 |
| CC(C)NCC(C(=O)N1CCN(c2ncnc3c2C(C)CC3O)CC1)c1ccc(Cl)cc1 (stereo unspecified) + COc1c(OCCCN2CCOCC2)ccc2c3n(c(=NC(=O)c4cnc(N)nc4)nc12)CCN3 | > 7.50 |
| CNC(=O)c1ccc(N2C(=S)N(c3ccc(C#N)c(C(F)(F)F)c3)C(=O)C2(C)C)cc1F + COc1c(OCCCN2CCOCC2)ccc2c3n(c(=NC(=O)c4cnc(N)nc4)nc12)CCN3 | > 7.50 |

Please examine the following record next.
Suppose we examine the molecule C=CC(=O)N1CCN(c2nc(=O)n(-c3c(C)ccnc3C(C)C)c3nc(-c4c(O)cccc4F)c(F)cc23)C(C)C1 (stereo unspecified) + COc1c(OCCCN2CCOCC2)ccc2c3n(c(=NC(=O)c4cnc(N)nc4)nc12)CCN3 ; what pIC50 value has been reported?
> 7.50
